# Papp annotations
- assay.notes: Parallel artificial membrane permeability assay (PAMPA), BBB
- Type: in vitro ADME
- condition.parameters: pH 7.4, read-out: Experimental Pe
reported.endpoint: Papp

[[record]]
smi = "O=C1Nc2ccccc2/C1=N/NC(=O)c1ccc(Br)cc1"
result = "50.2 nm/s"

[[record]]
smi = "O=C1Nc2ccc(Cl)cc2/C1=N/NC(=O)c1ccccc1"
result = "46.6 nm/s"

[[record]]
smi = "O=C1Nc2ccccc2/C1=N/NC(=O)c1ccc(Cl)cc1"
result = "48.6 nm/s"

[[record]]
smi = "O=C1Nc2ccc(Cl)cc2/C1=N/NC(=O)c1ccc(Br)cc1"
result = "43.9 nm/s"

